Read-out: ABC Transporter (ABCB1), ABCB1 (gene 5243)
method.description: LTEA_HepaRG_ABCB1: Life Technologies and Expression Analysis (LTEA) Assay for ABC Transporter (ABCB1) using HepaRG (AID 2283460)
test.settings: mRNA level, 48 h; actives raise or lower the signal
Active and inactive are the calls of the source. The calls were made as follows: active = hit-call score of the fitted dose curve at least 0.9, where 1 is the maximum; inactive = score below 0.9.
Possible outcomes: active, inactive

CC(=O)CC(c1ccccc1)c1c(O)c2ccccc2oc1=O (stereo unspecified) : inactive
CC(=O)OC1CC(C)OC(C)O1 (stereo unspecified) : inactive
CN(C)C(=O)NC1(c2ccccc2)CCN(CCC[C@]2(c3ccc(Cl)c(Cl)c3)CCCN(C(=O)c3ccccc3)C2)CC1 : inactive
CC(=O)S[C@H](C(=O)N[C@H]1Cc2ccccc2[C@H]2CCC[C@@H](C(=O)O)N2C1=O)C(C)C : inactive
O=C(O)c1cccnc1 : inactive
CCc1cc(C2=C(C(=O)O)N(c3ccccc3C(F)(F)F)S(=O)(=O)c3ccccc32)cc2c1OCO2 : active
